test: GST conjugation activity with 1,2-epoxy-3-(p-nitrophenoxy)propane (HPLC); format: biochemical; conditions: 0.4 mM electrophilic substrate, 4 mM glutathione, 0.1 M MOPS pH 7.0, corrected for uncatalyzed reaction
test_readout: Activity of soybean GST enzyme, 1,2-epoxy-3-(p-nitrophenoxy)propane (nmol/min/mg)
Unit nmol/min/mg implied. Number only.

molecule	reported_measurement
se3.03b09: soybean type III GST encoded by cDNA insert in clone se3.03b09 (protein) MSKSEDLKLLGGWFSPFALRVQIALNLKGLEYEVVEETLNPKSDLLLKSNPVHKKIPVFFHGDKVICESAIIVEYIDEAWTNVPSILPQNAYDRANARFWFAYIDEKWFTSLRSVLVAEDDEAKKPHFEQAEEGLERLEEVFNKYSEGKAYFGGDSIGFIDIGFGSFLSWMRVIEEMSGRKLLDEKKHPGLTQWAETFAADPAVKGILPETDKLVEFAKILQLKWTAAAAAAAK	20

Pending molecule:
The value of Activity of soybean GST enzyme, 1,2-epoxy-3-(p-nitrophenoxy)propane measured for the molecule ssm.pk0067.g5: soybean type III GST encoded by cDNA insert in clone ssm.pk0067.g5 (protein) MASYHEEEVRLLGKWASPFSNRVDLALKLKGVPYKYSEEDLANKSADLLKYNPVHKKVPVLVHNGNPLPESLIIVEYIDETWKNNPLLPQDPYERALARFWSKTLDDKILPAIWNACWSDENGREKAVEEALEALKILQETLKDKKFFGGESIGLVDIAANFIGYWVAILQEIAGLELLTIEKFPKLYNWSQDFINHPVIKEGLPPRDELFAFFKASAKK turned out to be 19
